system: MDA-MB-468 cancer cell line; test: Cell growth assay (WST-8); type: cell-based; conditions: Homo sapiens, MDA-MB-468, 96 h; WST-8, 4 days; read-out: Inhibition of cell growth IC50, MDA-MB-468 cancer cell line
Experimental Readout: IC50

Summary for this compound, NC(=O)CC[C@H](NC(=O)[C@@H]1CCC2CCCC[C@H](NC(=O)[C@@H](N)Cc3ccc(OP(=O)(O)O)cc3)C(=O)N21)C(=O)NCc1ccccc1 (stereo partly drawn) : IC50 is > 100 µM

So, CC(=O)N[C@@H](Cc1ccc(OC(C(=O)O)C(=O)O)cc1)C(=O)N[C@H]1CCCCC2CC[C@@H](C(=O)N[C@@H](CCC(N)=O)C(=O)NCc3ccccc3)N2C1=O (stereo partly drawn) ? Its IC50 was > 100 µM

Lab book: IC50 of CCCCCCCCCCCCCCCCN1CCN(CCC(=O)N[C@@H](Cc2ccc(OP(=O)(O)O)cc2)C(=O)N[C@H]2CCCCC3CC[C@@H](C(=O)NCCc4cnc[nH]4)N3C2=O)CC1 (stereo partly drawn) noted as < 10 µM

The recorded IC50 for entry "NC(=O)CC[C@H](NC(=O)[C@@H]1CC[C@@H]2CCCC[C@H](NC(=O)[C@@H](N)Cc3ccc(CP(=O)(O)O)cc3)C(=O)N21)C(=O)NCc1ccccc1" equals > 100 µM

get_value(item= CN[C@H](Cc1ccc(OCP(=O)(O)O)cc1)C(=O)N[C@H]1CCCCC2CC[C@@H](C(=O)N[C@@H](Cc3c[nH]cn3)C(=O)NCc3ccccc3)N2C1=O (stereo partly drawn) , readout=IC50) returns > 100 µM

Per the records, this compound ( "O=C(O)CCc1ccc(CCC(=O)N[C@H]2CCCC[C@H]3CC[C@@H](C(=O)NCC[C@H](O)CO)N3C2=O)cc1" ) has IC50 equal to > 100 µM
